system under test: human 11β-HSD2 (Homo sapiens)
Construct: The obtained PCR products of about 0.9 kbp, 1.2 kbp, and 0.9 kbp were subcloned into an expression vector pcDNA3.1+/Zeo; expressed in transfected cells
Sequence (P80365 1-405): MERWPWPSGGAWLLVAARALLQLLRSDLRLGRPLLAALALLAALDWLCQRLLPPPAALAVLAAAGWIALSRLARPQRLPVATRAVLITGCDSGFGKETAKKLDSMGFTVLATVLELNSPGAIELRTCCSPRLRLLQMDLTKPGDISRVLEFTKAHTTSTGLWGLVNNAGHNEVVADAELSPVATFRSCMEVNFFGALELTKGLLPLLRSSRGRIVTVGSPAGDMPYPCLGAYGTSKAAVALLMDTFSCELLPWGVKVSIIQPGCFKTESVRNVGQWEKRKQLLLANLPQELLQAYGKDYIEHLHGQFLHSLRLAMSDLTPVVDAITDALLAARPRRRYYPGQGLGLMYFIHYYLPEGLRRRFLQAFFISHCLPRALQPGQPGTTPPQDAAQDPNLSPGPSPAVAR
assay name: Enzyme inhibitory activity, human 11β-HSD2 (lysate of stably expressing HEK293 cells, cortisol by competitive ELISA)
Assay type: biochemical
run parameters: Table 1; human 11β-HSD2, cell lysate, 37° C. for 1 hour; read-out: h HSD2 in vitro assay (IC50 uM)
measured property: IC50

molecule | system under test | IC50
COc1ccc(N2N(C3C4CC5CC(C4)CC3C5)C(=O)C2(C)C)cc1 (stereo not drawn) [Example 203] | human 11β-HSD2 (Homo sapiens) | > 30 µM
CC1(C)C(=O)N(C2C3CC4CC(C3)CC2C4)N1Cc1ccccc1Br (stereo not drawn) [Example 39] | human 11β-HSD2 (Homo sapiens) | 3 µM
CC1(C)C(=O)N(C2C3CC4CC(C3)CC2C4)N1Cc1ccccc1I (stereo not drawn) [Example 40] | human 11β-HSD2 (Homo sapiens) | 10 µM
CC1(C)C(=O)N(C2C3CC4CC(C3)CC2C4)N1C(=O)c1ccccc1F (stereo not drawn) [Example 119] | human 11β-HSD2 (Homo sapiens) | > 30 µM
CC1(C)C(=O)N([C@H]2C3CC4CC2C[C@@](O)(C4)C3)N1c1ccc2ccccc2c1 [Example 248] | human 11β-HSD2 (Homo sapiens) | 3 to 30 µM
CC1(C)C(=O)N([C@H]2C3CC4CC2C[C@](O)(C4)C3)N1c1cccc(Cl)c1Cl [Example 231] | human 11β-HSD2 (Homo sapiens) | > 30 µM

Param item = CSc1ccccc1CN1N(C2C3CC4CC(C3)CC2C4)C(=O)C1(C)C (stereo not drawn) [Example 60] ; retrieve measured IC50.
1.1 µM

Param item = CC1(C)C(=O)N(C2C3CC4CC(C3)CC2C4)N1Cc1ccc(Cl)cc1Cl (stereo not drawn) [Example 52] ; retrieve measured IC50.
9.5 µM

###

system under test: human 11β-HSD2 (Homo sapiens)
Construct: The obtained PCR products of about 0.9 kbp, 1.2 kbp, and 0.9 kbp were subcloned into an expression vector pcDNA3.1+/Zeo; expressed in transfected cells
assay name: Enzyme inhibitory activity, human 11β-HSD2 (lysate of stably expressing HEK293 cells, cortisol by competitive ELISA)
Format: biochemical
run parameters: Table 1; human 11β-HSD2, cell lysate, 37° C. for 1 hour; read-out: h HSD2 in vitro assay (IC50 uM)
Recorded measurements of IC50, one per entry

A selection of reference data follows.
compound | IC50
CC1(C)C(=O)N([C@H]2C3CC4CC2C[C@](Cl)(C4)C3)N1c1ccccc1O | 3 to 30 µM
CC1(C)C(=O)N(C2C3CC4CC(C3)CC2C4)N1c1ccc(O)cc1 (centres unmarked) | 4.5 µM
CC1(C)C(=O)N(C2C3CC4CC(C3)CC2C4)N1c1cccc(Cl)c1 (centres unmarked) | 3 to 30 µM
CC1(C)C(=O)N(C2C3CC4CC(C3)CC2C4)N1Cc1ccc(F)cc1C(F)(F)F (centres unmarked) | > 30 µM
CC1(C)C(=O)N(C2C3CC4CC(C3)CC2C4)N1c1cccc2ccccc12 (centres unmarked) | 3 to 30 µM

Param item = CC1(C)C(=O)N([C@H]2C3CC4CC2C[C@](Cl)(C4)C3)N1c1cccc(Cl)c1Cl ; retrieve measured IC50.
3 to 30 µM

Param item = CCc1ccccc1CN1N(C2C3CC4CC(C3)CC2C4)C(=O)C1(C)C (centres unmarked) ; retrieve measured IC50.
6.6 µM

Param item = CC1(C)C(=O)N([C@H]2C3CC4CC2C[C@@](C(=O)O)(C4)C3)N1c1cccc2ccccc12 ; retrieve measured IC50.
> 30 µM

Param item = CC1(C)C(=O)N(C2CCCCCCC2)N1Cc1cccc(Cl)c1Cl ; retrieve measured IC50.
3 to 30 µM

Param item = CC1(C)C(=O)N(C2C3CC4CC(C3)CC2C4)N1C(=O)c1ccccc1Br (centres unmarked) ; retrieve measured IC50.
> 30 µM

Param item = CC1(C)C(=O)N(C2C3CC4CC(C3)CC2C4)N1c1ccccc1 (centres unmarked) ; retrieve measured IC50.
3 to 30 µM
